Where do these numbers come from? They come from ChEMBL document CHEMBL4257581.

- method description: Lipophilicity, log D of the compound at pH 7.4
- Assay type: physicochemical
- conditions used: buffer
reported metric: logD
Number only, no unit.

Record `CC1(C)CC(Oc2ccc(-c3ccc(-c4cn[nH]c4)cc3O)nn2)CC(C)(C)N1` . Reported logD: 2.51

Reported logD of `CN(c1ccc(-c2ccc(-n3cc(CO)cn3)cc2O)nn1)C1CC(C)(C)NC(C)(C)C1` : 2.16

Consider `CN(c1ccc(-c2cc3cnccc3cc2O)nn1)C1CC(C)(C)NC(C)(C)C1` . Its measured logD is 3.07

Query `Oc1cc(-n2cccn2)ccc1-c1ccc(OC2CCNCC2)nn1` yields logD of 0.69

The recorded logD for `CC1(C)CC(Oc2ccc(-c3ccc(-n4cccn4)cc3O)nn2)CC(C)(C)N1CC(F)(F)F` is 4.65

logD reported for this compound Oc1cc(-c2cn[nH]c2)ccc1-c1ccc(N2CCC3(CCCNC3)C2)nn1 (stereo not drawn) : 1.2

// `Oc1cc(-c2cn[nH]c2)ccc1-c1ccc(N2C[C@H]3CNC[C@H]3C2)nn1` : logD value = 0.58

* * *

- method description: Intrinsic clearance in mouse liver microsomes at 1 uM up to 30 mins in presence of NADPH by LC-MS/MS analysis
- Assay type: ADME, microsome
- conditions used: read-out: CLH
reported metric: microsomal CLint at 1 µM (µL/min/mg)
# unit: µL/min/mg | format: bare number

# microsomal CLint at 1 µM of `CC1(C)CC(Nc2ccc(-c3cc4ccccc4s3)nn2)CC(C)(C)N1` = 23.5

* * *

- method description: Permeability of the compound at 5 uM after 4 hrs by PAMPA
- Type: ADME
reported metric: log(permeability)
Field format: numeric only.

Reported log(permeability) ( `CN(c1ccc(-c2cc3cnccc3cc2O)nn1)C1CC(C)(C)NC(C)(C)C1` ) = -4.3

get_value(item= `CC1(C)CC(Oc2ccc(-c3ccc(-c4cn[nH]c4)cc3O)nn2)CC(C)(C)N1` , readout=log(permeability)) returns -4.9

`CN(c1ccc(-c2ccc(-n3cc(CO)cn3)cc2O)nn1)C1CC(C)(C)NC(C)(C)C1` yielded log(permeability) of -5.5

* * *

- method description: Drug level in brain in C57BL/6 mouse brain at 1 mg/kg, iv or 5 mg/kg, po
- Type: ADME, organism-based
- conditions used: in vivo, read-out: Drug uptake
reported metric: concentration

Input `CC1(C)CC(Nc2ccc(-c3cc4ccccc4s3)nn2)CC(C)(C)N1` . Output concentration: < 2.7 nM

* * *

- method description: Dissociation constant, pKa of the compound
- Type: physicochemical
reported metric: pKa
When you answer, write just the number.

Below are worked cases with known answers.
[[record]]
molecule = "CN(c1ccc(-c2ccc(-n3cccn3)cc2O)nn1)C1CC(C)(C)NC(C)(C)C1"
assay_result = 10.3

[[record]]
molecule = "Oc1cc(-n2cccn2)ccc1-c1ccc(OC2CCNCC2(F)F)nn1 (centres undefined)"
assay_result = 5.89

[[record]]
molecule = "CC1(C)CC(Oc2ccc(-c3ccc(-n4cccn4)cc3O)nn2)CC(C)(C)N1"
assay_result = 10.1


Lab note: next molecule to report on.
Recorded result, `CC1(C)CC(Nc2ccc(-c3cc4ccccc4s3)nn2)CC(C)(C)N1` , pKa: 10

* * *

Entries and their measured microsomal CLint at 1 µM follow.
- method description: Intrinsic clearance in rat liver microsomes at 1 uM up to 30 mins in presence of NADPH by LC-MS/MS analysis
- Format: ADME, microsome
- conditions used: read-out: CLH
Write the numeric value and follow it with the unit.

// worked examples, microsomal CLint at 1 µM included
[[record]]
smiles_data = "CC1(C)CC(Nc2ccc(-c3cc4ccccc4s3)nn2)CC(C)(C)N1"
assay_result = "22.6 µL/min/mg"

[[record]]
smiles_data = "CN(c1ccc(-c2cc3ccccc3cc2O)nn1)C1CC(C)(C)NC(C)(C)C1"
assay_result = "17 µL/min/mg"

[[record]]
smiles_data = "CN(c1ccc(-c2ccc(C#N)cc2O)nn1)C1CC(C)(C)NC(C)(C)C1"
assay_result = "7 µL/min/mg"


Kindly review the next molecule as well.
Memo: `CN(c1ccc(-c2cc3ccccc3s2)nn1)C1CC(C)(C)NC(C)(C)C1` , reported microsomal CLint at 1 µM: 40 µL/min/mg

* * *

- method description: Plasma clearance in C57BL/6 mouse at 1 mg/kg, iv or 5 mg/kg, po
- Format: ADME, organism-based
reported metric: clearance (mL/min/kg)
Answer with a number only, understood to be in mL/min/kg.

Input `CC1(C)CC(Nc2ccc(-c3cc4ccccc4s3)nn2)CC(C)(C)N1` . Output clearance: 113

* * *

- method description: AUC in mouse plasma at 10 mg/kg, po
- Type: ADME, organism-based
AUC values by entry
Just the number please, in µM·h, no unit attached.

As a guide, the following entries are already answered.
[[record]]
smiles_data = "CN(c1ccc(-c2cc3ccccc3cc2O)nn1)C1CC(C)(C)NC(C)(C)C1"
assay_result = 16.9

[[record]]
smiles_data = "CN(c1ccc(-c2ccc(C#N)cc2O)nn1)C1CC(C)(C)NC(C)(C)C1"
assay_result = 5.2


Lookup result for `CN(c1ccc(-c2cc3ccccc3s2)nn1)C1CC(C)(C)NC(C)(C)C1` ; measured AUC: 4.9

* * *

- Species on record: Mus musculus
- method description: Stabilization of SMN2 mRNA in mouse myoblasts assessed as increase in SMN protein level by ELISA relative to DMSO control
This section presents compounds with their documented fold change (FC) values.
Just the number.

Note to self: fold change (FC) recorded for `CN(c1ccc(-c2ccc(-n3cccn3)cc2O)nn1)C1CC(C)(C)NC(C)(C)C1` was 3.1

Just so you know, measured fold change (FC) for `COc1cc(C#N)ccc1-c1ccc(N(C)C2CC(C)(C)NC(C)(C)C2)nn1` came out at 2.3

Notebook: `CC1(C)CC(Nc2ccc(-c3cccc4ccccc34)nn2)CC(C)(C)N1` , fold change (FC) read as 1

Reported fold change (FC) for `CN(c1ccc(-c2cc3cccnc3cc2O)nn1)C1CC(C)(C)NC(C)(C)C1` was 2.9

Given item `CC1(C)CC(Nc2ccc(-c3ccc4ccccc4c3)nn2)CC(C)(C)N1` , the value recorded as its fold change (FC) is 2.3

* * *

- method description: Clearance in mouse at 1 mg/kg, iv or 10 mg/kg, po
- Assay type: ADME, organism-based
- conditions used: in vivo
Reported clearance by item:
Supply the numeric figure in mL/min/kg, leaving out any unit text.

Observe how each entry below is paired with its result.
[[record]]
smiles_data = "CN(c1ccc(-c2cc3ccccc3cc2O)nn1)C1CC(C)(C)NC(C)(C)C1"
reported_metric = "clearance"
assay_result = 56

[[record]]
smiles_data = "CN(c1ccc(-c2ccc(C#N)cc2O)nn1)C1CC(C)(C)NC(C)(C)C1"
reported_metric = "clearance"
assay_result = 23


Turning now to a further molecule:
So for `CN(c1ccc(-c2cc3ccccc3s2)nn1)C1CC(C)(C)NC(C)(C)C1` , the logged clearance turned out to be 100

* * *

- method description: Oral bioavailability in Sprague-Dawley rat at 10 mg/kg
- Format: ADME, organism-based
- conditions used: in vivo
Label rule, in plain words: bioavailability of 50% and up is MET, under 50% is NOT MET.

Worked examples, 4 compounds total:
[[record]]
smiles_data = "CN(c1ccc(-c2cc3cnccc3cc2O)nn1)C1CC(C)(C)NC(C)(C)C1"
assigned_label = "MET"

[[record]]
smiles_data = "CC1(C)CC(Oc2ccc(-c3ccc(-c4cn[nH]c4)cc3O)nn2)CC(C)(C)N1"
assigned_label = "MET"

[[record]]
smiles_data = "CN(c1ccc(-c2ccc(-n3ccc(N)n3)cc2O)nn1)C1CC(C)(C)NC(C)(C)C1"
assigned_label = "NOT MET"

[[record]]
smiles_data = "CN(c1ccc(-c2ccc(-c3cn[nH]c3)cc2O)nn1)C1CC(C)(C)NC(C)(C)C1"
assigned_label = "MET"


Would you kindly look at the next entry?
Prompt: Could you tell me if the measured bioavailability of `CN(c1ccc(-c2cc3cccnc3cc2O)nn1)C1CC(C)(C)NC(C)(C)C1` reaches 50% or more?
Completion: NOT MET

* * *

logD reference
- method description: Lipophilicity, log D of the compound at pH 7.4
- Format: physicochemical
- conditions used: buffer
Lab note: jot down the number only; don't add units.

Look over these answered cases.
[[record]]
smiles_data = "CN(c1ccc(-c2cc3ccccc3s2)nn1)C1CC(C)(C)NC(C)(C)C1"
assay_result = 3.4

[[record]]
smiles_data = "CN(c1ccc(-c2cc3cccnc3cc2O)nn1)C1CC(C)(C)NC(C)(C)C1"
assay_result = 3.23

[[record]]
smiles_data = "CC1(C)CC(Oc2ccc(-c3ccc(-n4cccn4)cc3O)nn2)CC(C)(C)N1"
assay_result = 2.79


Entry under test: `CN(c1ccc(-c2ccc(C#N)cc2O)nn1)C1CC(C)(C)NC(C)(C)C1` . Its logD was 3.2

Value of logD reported for the molecule `CN(c1ccc(-c2ccc(-n3cccn3)cc2O)nn1)C1CC(C)(C)NC(C)(C)C1` is 3.11

// `CC1(C)CC(Nc2ccc(-c3cc4ccccc4s3)nn2)CC(C)(C)N1` : logD value = 2.67
